Tested on: IL-17A-induced G-CSF production in human normal keratinocyte (NHK)
Assay: NHK assay: IL-17A-induced G-CSF production in normal human keratinocytes
Type: cell-based
Conditions: Homo sapiens, Keratinocyte, 24 h, IL-17A 5 ng/mL, average if tested more than once
pIC50: −log10 of the molar value.
molecules and their reported pIC50

Q) For the molecule shown here, Cc1nonc1C(=O)N[C@@H](C[C@H]1CCC(F)(F)C1)c1nc2ccc([C@H](NC(=O)CC3CC(F)(F)C3)C3CC3)cc2[nH]1 [Example 235] , give the reported pIC50.
A) < 7.00

----------
Test system: IL-17A-induced G-CSF production in human normal keratinocyte (NHK)
Assay: NHK assay: IL-17A-induced G-CSF production in normal human keratinocytes
Type: cell-based
Conditions: Homo sapiens, Keratinocyte, 24 h, IL-17A 5 ng/mL, average if tested more than once
Method: IL-17A acts directly on keratinocytes through binding to dimeric receptor IL-17RA/RC and drives the production of a number of inflammatory mediators known to be elevated in psoriasis lesional tissue. IL-17A small molecule inhibitors that block the IL-17A to interact with IL-17R would inhibit the IL-17A signaling in its targeted cells such as keratinocytes. The compound functional activity is evaluated for its impact on IL-17A-induced G-CSF production in human normal keratinocyte (NHK). […]
value_kind: IC50

Sample answers from the record:
compound | reading
C[C@@H](NC(=O)CCC(F)(F)F)c1ccc2[nH]c([C@@H](NC(=O)c3nc(CCC(F)(F)F)cs3)C3CCC(F)(F)CC3)nc2c1 | > 100 nM
C[C@@H](NC(=O)CCC(F)(F)F)c1ccc2[nH]c([C@@H](NC(=O)c3ncn(CCC(F)F)n3)C3CCC(F)(F)CC3)nc2c1 | > 100 nM
C[C@@H](NC(=O)CCC(F)(F)F)c1ccc2nc([C@@H](NC(=O)c3cc(F)ccc3F)C3CCC(F)(F)CC3)[nH]c2c1 | > 100 nM
C[C@@H](NC(=O)CCC(F)(F)F)c1ccc2[nH]c([C@@H](NC(=O)c3cnn(CC45CC(C#N)(C4)C5)n3)C3CCC(F)(F)CC3)nc2c1 | > 100 nM
CC(C)C(=O)N[C@H](c1nc2cc([C@@H](C)NC(=O)CCC(F)(F)F)ccc2[nH]1)C1CCC(F)(F)CC1 | > 100 nM

Q) For the compound shown here, C[C@@H](NC(=O)CCC(F)(F)F)c1ccc2[nH]c([C@@H](NC(=O)c3cnnn3CC3CC3)C3CCC(F)(F)CC3)nc2c1 , give the reported IC50.
A) > 100 nM

Q) Continue with CC(C)(OC[C@H](NC(=O)c1nocc1C1CC1)c1nc2cc([C@H](NC(=O)CC3CC(F)(F)C3)C3CC3)ccc2[nH]1)C(F)(F)F
A) 50 to 100 nM

Q) Continue with CC(C)n1nccc1C(=O)N[C@@H](COC1CC(F)(F)C1)c1nc2ccc([C@H](NC(=O)CC3CC(F)(F)C3)C3CC3)cc2[nH]1
A) > 100 nM

Q) Continue with C[C@@H](NC(=O)CCC(F)(F)F)c1ccc2[nH]c([C@@H](NC(=O)c3cnn(CC4CC4(F)F)n3)C3CCC(F)(F)CC3)nc2c1 (some centres unmarked)
A) > 100 nM

Q) Continue with Cc1nonc1C(=O)N[C@H](c1nc2ccc([C@H](NC(=O)CC3CC(F)(F)C3)C3CC3)cc2[nH]1)[C@H]1C[C@H](CC(F)(F)F)C1 (single isomer, unassigned)
A) > 100 nM

Q) Continue with Cc1nonc1C(=O)N[C@H](c1nc2ccc([C@H](NC(=O)CC3CC(F)(F)C3)C3CC3)cc2[nH]1)[C@@H]1C[C@@H]2[C@H](C1)C2(F)F
A) 50 to 100 nM

Q) Continue with CC(C)n1nccc1C(=O)N[C@H](c1nc2ccc([C@@H](C)NC(=O)CC(C)C(F)(F)F)cc2[nH]1)C1CCC(F)(F)CC1 (single isomer, unassigned)
A) < 50 nM
